# Test system: Escherichia coli
# procedure text: Minimum inhibitory concentration against Escherichia coli strain SM101
# Assay type: functional
readout name: MIC

`CC(C)(C)OC(=O)NCCCB1O[C@@]2(C)CCC3C[C@@]2(O1)C3(C)C` has a reported MIC of 8 µg/mL

`CNC(=O)[C@@H](N)CCB1O[C@@]2(C)CCC3C[C@@]2(O1)C3(C)C` has a reported MIC of 64 µg/mL

`CC(C)(C)OC(=O)[C@@H](N)CCB1O[C@@]2(C)CCC3C[C@@]2(O1)C3(C)C` has a reported MIC of 8 µg/mL

`N[C@@H](CCB(O)O)C(=O)O` has a reported MIC of > 64 µg/mL

`COC(=O)[C@H](CCB1O[C@@]2(C)CCC3C[C@@]2(O1)C3(C)C)NC(=O)OCc1ccccc1` has a reported MIC of > 64 µg/mL

`CC1(C)C2CC[C@]3(C)OB(CCCN)O[C@]13C2` has a reported MIC of > 64 µg/mL

`COC(=O)[C@@H](N)CCB(O)O` has a reported MIC of > 64 µg/mL

`CC1(C)C2CC[C@]3(C)OB(CC[C@H](NC(=O)CN)C(=O)O)O[C@]13C2` has a reported MIC of > 64 µg/mL

`CC1(C)C2CC[C@]3(C)OB(CC[C@H](NC(=O)OCc4ccccc4)C(=O)O)O[C@]13C2` has a reported MIC of > 64 µg/mL

`COC(=O)[C@@H](N)CCB1O[C@@]2(C)CCC3C[C@@]2(O1)C3(C)C` has a reported MIC of > 64 µg/mL

---

# Tested on: Escherichia coli
# procedure text: Minimum inhibitory concentration against Escherichia coli strain tolC
# Format: functional
readout name: MIC

Entry `CC1(C)C2CC[C@]3(C)OB(CC[C@H](NC(=O)OCc4ccccc4)C(=O)O)O[C@]13C2` , Escherichia coli data, MIC value: > 64 µg/mL

Entry `CC1(C)C2CC[C@]3(C)OB(CC[C@H](NC(=O)CN)C(=O)O)O[C@]13C2` , Escherichia coli data, MIC value: > 64 µg/mL

Entry `COC(=O)[C@@H](N)CCB(O)O` , Escherichia coli data, MIC value: > 64 µg/mL

Entry `CC(C)(C)OC(=O)NCCCB1O[C@@]2(C)CCC3C[C@@]2(O1)C3(C)C` , Escherichia coli data, MIC value: 8 µg/mL

Entry `COC(=O)[C@@H](N)CCB1O[C@@]2(C)CCC3C[C@@]2(O1)C3(C)C` , Escherichia coli data, MIC value: > 64 µg/mL

Entry `N[C@@H](CCB(O)O)C(=O)O` , Escherichia coli data, MIC value: > 64 µg/mL

Entry `CNC(=O)[C@@H](N)CCB1O[C@@]2(C)CCC3C[C@@]2(O1)C3(C)C` , Escherichia coli data, MIC value: 64 µg/mL

Entry `CC(C)(C)OC(=O)[C@@H](N)CCB1O[C@@]2(C)CCC3C[C@@]2(O1)C3(C)C` , Escherichia coli data, MIC value: 8 µg/mL

Entry `COC(=O)[C@H](CCB1O[C@@]2(C)CCC3C[C@@]2(O1)C3(C)C)NC(=O)OCc1ccccc1` , Escherichia coli data, MIC value: > 64 µg/mL

Entry `CC1(C)C2CC[C@]3(C)OB(CCCN)O[C@]13C2` , Escherichia coli data, MIC value: > 64 µg/mL

---

# target entity: Aspartyl/glutamyl-tRNA(Asn/Gln) amidotransferase subunit A (Streptococcus pyogenes serotype M1)
# Sequence (Q99YC0 whole entry, looked up): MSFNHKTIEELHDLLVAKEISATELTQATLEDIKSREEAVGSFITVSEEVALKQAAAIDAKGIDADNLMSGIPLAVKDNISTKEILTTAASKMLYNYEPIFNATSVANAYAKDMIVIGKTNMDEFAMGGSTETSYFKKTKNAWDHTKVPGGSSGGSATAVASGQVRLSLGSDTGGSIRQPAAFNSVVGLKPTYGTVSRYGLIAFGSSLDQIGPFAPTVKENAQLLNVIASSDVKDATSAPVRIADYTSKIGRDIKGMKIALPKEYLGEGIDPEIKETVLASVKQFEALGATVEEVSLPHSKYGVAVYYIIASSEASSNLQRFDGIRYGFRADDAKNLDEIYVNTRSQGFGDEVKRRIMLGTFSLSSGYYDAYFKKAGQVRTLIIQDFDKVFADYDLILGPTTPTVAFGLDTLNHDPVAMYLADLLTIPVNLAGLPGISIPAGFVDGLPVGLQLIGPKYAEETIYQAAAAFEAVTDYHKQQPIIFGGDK
# procedure text: In vitro inhibitory concentration against transferase activity of bacterial Glu-tRNA-Gln […] (Glu-AdT)
Could you please report measured IC50 for the items listed next?
Numeric only. Scale: µM

`N[C@@H](CCB(O)O)C(=O)O` has a reported IC50 of 0.1

`CNC(=O)[C@@H](N)CCB1O[C@@]2(C)CCC3C[C@@]2(O1)C3(C)C` has a reported IC50 of 35

`CC1(C)C2CC[C@]3(C)OB(CC[C@H](N)C(=O)NS(=O)(=O)C(F)(F)F)O[C@]13C2` has a reported IC50 of 4.7

`CC1(C)C2CC[C@]3(C)OB(CC[C@H](N)C(=O)NS(=O)(=O)c4ccc(N)cc4)O[C@]13C2` has a reported IC50 of 10

`CNC(=O)CNC(=O)[C@@H](N)CCB1O[C@@]2(C)CCC3C[C@@]2(O1)C3(C)C` has a reported IC50 of 20

`COC(=O)[C@@H](N)CCB1O[C@@]2(C)CCC3C[C@@]2(O1)C3(C)C` has a reported IC50 of 0.07
